The measured values listed here are drawn from the supplement of paper PMC8497498.

# Tested on: Plasmodium vivax liver stage (primary human hepatocyte culture)
# methodSummary: maximum inhibition of schizont net growth area; higher = more active
# conditionContext: P. vivax isolate: Pv923; hepatocyte lot: BGW; assay mode: Radical Cure, 8-day (treatment from day 5 post-infection)
# key: entry, value: maximum inhibition
Note to self: number, then unit, no commentary.

Before answering, review these 5 worked examples.
Q: // returns reported maximum inhibition for input Cc1cc(Nc2ccc(S(F)(F)(F)(F)F)cc2)n2nc(C(C)(F)F)nc2n1
A: 69.4%

Q: Would you mind telling me what maximum inhibition value was observed for CCc1cc(=O)n(C)c(SC(C)C(=O)Nc2ccc(F)cc2)n1 (stereo unspecified) ?
A: 87.6%

Q: For CS(=O)(=O)c1cccc(-c2cnc3[nH]cc(-c4ccc(CCC(=O)O)cc4)c3c2)c1 , what is its reported maximum inhibition?
A: 99.2%

Q: What value of maximum inhibition has been recorded for this entry: CN(C)C(=S)NN=C1C(=O)Nc2ccccc21
A: 66.1%

Q: Could you share which maximum inhibition value was measured for O=C(Nc1ccc(N2CCNCC2)cc1)c1ccn2ncc(-c3cccc(Cl)c3)c2n1 ?
A: 45.8%

***
Q: Fill blank: measured maximum inhibition of the compound Cc1ncc(-c2ccnc(Nc3ccc(S(C)(=O)=O)cc3)n2)n1C(C)C is ____.
A: 69.4%

###

# Test system: Plasmodium vivax liver stage (primary human hepatocyte culture)
# conditionContext: P. vivax isolate: Pv923; hepatocyte lot: BGW; assay mode: Radical Cure, 8-day (treatment from day 5 post-infection)
Reported EC50 hypnozoite quantity values for a set of molecules

Q: // EC50 hypnozoite quantity lookup, key: O=C(Nc1ccc(N2CCNCC2)cc1)c1ccn2ncc(-c3cccc(Cl)c3)c2n1
A: > 50 µM

Q: Please look up its EC50 hypnozoite quantity: CCc1cc(=O)n(C)c(SC(C)C(=O)Nc2ccc(F)cc2)n1 (stereo not given)
A: > 50 µM

Continuing:
Q: Recorded EC50 hypnozoite quantity of CS(=O)(=O)c1cccc(-c2cnc3[nH]cc(-c4ccc(CCC(=O)O)cc4)c3c2)c1 , please.
A: > 50 µM

Q: # input molecule: Cc1ncc(-c2ccnc(Nc3ccc(S(C)(=O)=O)cc3)n2)n1C(C)C ; wanted: its EC50 hypnozoite quantity
A: > 50 µM

Q: Query (molecule): Cc1cc(Nc2ccc(S(F)(F)(F)(F)F)cc2)n2nc(C(C)(F)F)nc2n1 ; field requested: EC50 hypnozoite quantity
A: > 10 µM

###

# Test system: Plasmodium vivax liver stage (primary human hepatocyte culture)
# conditionContext: P. vivax isolate: Pv836; hepatocyte lot: BGW; assay mode: Radical Cure, 8-day (treatment from day 5 post-infection)
Entries and their EC50 schizont net growth area values follow.
Please respond with the number in nM and leave the unit unwritten.

Q: I am curious: what EC50 schizont net growth area value has been reported for CCC(C(=O)O)C1CCC(C)C(C(C)C(O)C(C)C(=O)C(CC)C2OC3(C=CC(O)C4(CCC(C)(C5CCC(O)(CC)C(C)O5)O4)O3)C(C)CC2C)O1 (centres undefined) [Salinomycin] ?
A: 40.2

# context switch: different molecule, same EC50 schizont net growth area
Q: // returns reported EC50 schizont net growth area for input Cc1nc(Sc2ncnc3sc4c(c23)CCC4)sc1CC(N)=O
A: 2860

###

Entries and their EC50 hypnozoite quantity values follow.
# Tested on: Plasmodium vivax liver stage (primary human hepatocyte culture)
# conditionContext: P. vivax isolate: Pv836; hepatocyte lot: BGW; assay mode: Radical Cure, 8-day (treatment from day 5 post-infection)

Q: Value lookup for EC50 hypnozoite quantity; key = CCC(C(=O)O)C1CCC(C)C(C(C)C(O)C(C)C(=O)C(CC)C2OC3(C=CC(O)C4(CCC(C)(C5CCC(O)(CC)C(C)O5)O4)O3)C(C)CC2C)O1 (centres undefined) [Salinomycin]
A: 0.112 µM

***
Q: For the compound c1ccn2c(Sc3ncnc4sccc34)ncc2c1 , what EC50 hypnozoite quantity is on record?
A: > 50 µM

Q: Please look up its EC50 hypnozoite quantity: Cn1c(Sc2ncnc3sccc23)nc2ccccc21
A: > 50 µM

Q: Given the entry Cc1nc(Sc2ncnc3sc4c(c23)CCC4)sc1CC(N)=O , report its measured EC50 hypnozoite quantity.
A: > 50 µM
